Origin of values: patent US20210347873A1

target: T1, human BLyS (full length, arginine to histidine at position 132) on CHO-K1 cells (human, UniProt Q9Y275 1-285); test: flow cytometry, CHO-K1 hBLyS cells, antibody 0.00427 nM
T1 construct: also called hBLyS; CHO-K1 hBLyS
T1 sequence (Q9Y275 whole entry R130H): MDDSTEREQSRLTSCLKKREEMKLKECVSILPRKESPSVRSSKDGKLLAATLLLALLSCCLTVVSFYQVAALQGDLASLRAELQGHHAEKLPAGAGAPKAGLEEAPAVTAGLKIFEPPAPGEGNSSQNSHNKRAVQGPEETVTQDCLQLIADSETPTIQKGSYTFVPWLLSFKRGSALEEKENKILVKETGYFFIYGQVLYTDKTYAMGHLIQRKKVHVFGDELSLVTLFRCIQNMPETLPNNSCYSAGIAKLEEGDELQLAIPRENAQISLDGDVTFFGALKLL
assay.metric: MFI (MFI)
Enter your answer as a number in MFI; do not include the unit.

Examples with answers:
>  <binder>
78C11D2D12 (antibody, V domains shown, Mouse hybridoma monoclonal antibody purified on Protein G) VH: QVQLQQSGAELVRPGTSVKISCKASGYAFTNYWLGWVKQRPGHGLEWIGDIYPGSGNTYYNEKFKGKATLTADKSSSTAYMQLSSLTSEDSAVFFCAAYLYAMDYWGQGTSVTVSS VL: QIVLTQSPAIMSASPGEKVTITCSASSSVSYMHWFQQKPGTSPKLWIYSASNLASGVPARFSGSGSGTSYSLTISRMEAEDAATYYCQQRGSYPFTFGSGTKLEIK

>  <unit>
MFI

>  <observed.value>
39.5

$$$$
>  <binder>
93C6F10D3 (antibody, V domains shown, Mouse hybridoma monoclonal antibody purified on Protein G) VH: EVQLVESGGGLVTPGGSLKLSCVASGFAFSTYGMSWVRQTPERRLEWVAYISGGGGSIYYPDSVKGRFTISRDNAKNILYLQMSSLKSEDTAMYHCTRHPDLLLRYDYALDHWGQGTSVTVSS VL: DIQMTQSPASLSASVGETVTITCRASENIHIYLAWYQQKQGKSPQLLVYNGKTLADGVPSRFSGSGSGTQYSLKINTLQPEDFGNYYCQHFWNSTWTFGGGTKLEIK

>  <unit>
MFI

>  <observed.value>
44.9

$$$$

Query :: Note MFI for the binder shown: 2-1G11 (antibody, V domains shown, From a human naive scFv phage library; also called human BLyS antibody 2-1G11) VH: EVQLVESRGGVVQPGRSLRLSCAASGFTFSSYGMHWVRQAPGKGLEWVAVISYDGSNKYYADSVKGRFTISRDNSKNTLYLQMNSLRAEDAAVYYCARDRVDILTGYSIYGMDVWGQGTTVTVSS VL: EIVMTQSPATLSLSPGERATLSCRASQSVSSYLAWYQQKPGQAPRLLIYDASKRATGIPARFSGSGSGTDFTLTISSLEPEDFAVYYCQQRSNWPLTFGGGTKVEIK
Result :: 107
